Consider the following binders and their measured MFI Ratio readings.
# test target: SARS-CoV-2 membrane protein on expressing cells (SARS-CoV-2, UniProt P0DTC5 1-222)

[[record]]
binder = "10-2 (VHH) VHH: EVQLVESGGGLVQPGGSLRLSCAASGGTFSSYSMGWFRQAPGKEREFVSAISWIIGSGGTTNYADSVKGRFTISADNSKNTAYLQMNSLKPEDTAVYYCTAGAGDSWGQGTLVTVSS"
reported_measurement = 1.25


Fill blank: measured MFI Ratio of the binder 10-54 (VHH) VHH: EVQLVESGGGLVQPGGSLRLSCAASGRTFSSARMGWFRQAPGKEREFVAGINMISSTKYADSVKGRFTISADNSKNTAYLQMNSLKPEDTAVYYCAHFRRFLPRGYVDYWGQGTLVTVSS is ____.
1.78
